test: Clearance in mouse at 0.5 mg/kg, iv; assay type: ADME, organism-based; settings: in vivo
MEASUREMENT_KIND: clearance (mL/min/kg)
# unit: mL/min/kg | format: bare number

Query block: Check the records and state clearance for Cc1nc2cc(F)c(-c3cnc(C(C)(C)O)nc3)nc2c(N[C@H](C)c2cc(C#N)ccc2F)c1Cl
Result block: 6.6

* * *

experiment: Metabolic stability in rat liver microsomes assessed as half-life; format: ADME, Microsome
MEASUREMENT_KIND: half-life (h)
The answer is to be given in h; state only the numeric part.

Query block: Supply recorded half-life for Cc1nc2cc(F)c(-c3cnc(C(C)(C)O)nc3)nc2c(N[C@H](C)c2cc(C#N)ccc2F)c1Cl here.
Result block: 1.15

* * *

target: Tumor necrosis factor (Homo sapiens); experiment: Inhibition of exogenous human TNFalpha in HEK-Blue-CD40L cells assessed as reduction in TNF-alpha-induced NFkappaB activation incubated for 18 hrs by quanti-blue based SEAP assay; assay type: cell-based
Sequence (P01375 whole entry): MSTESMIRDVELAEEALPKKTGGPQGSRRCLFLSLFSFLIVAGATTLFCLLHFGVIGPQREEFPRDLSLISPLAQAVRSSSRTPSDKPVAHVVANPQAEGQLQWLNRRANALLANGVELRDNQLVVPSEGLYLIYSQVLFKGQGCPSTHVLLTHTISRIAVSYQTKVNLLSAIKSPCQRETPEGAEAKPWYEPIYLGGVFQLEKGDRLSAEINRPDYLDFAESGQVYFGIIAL
MEASUREMENT_KIND: pIC50
Give only the number. pIC50 is defined as minus log10 of concentration in molar units.

The examples below pair each entry with its known result.
CC(Nc1c(Cl)cnc2ccc(-c3cnc(C(C)(C)O)nc3)nc12)c1ccccc1F (single isomer, unassigned; enantiomer 2): 6.33
CC(Nc1c(Cl)cnc2ccc(-c3cnc(C(C)(C)O)nc3)c(Cl)c12)c1ccccc1F (racemic): 6.44
Cc1ccc(C)c(Nc2c(Cl)cnc3ccc(Br)cc23)c1: 6.08
CC(Nc1c(Cl)cnc2cc(F)c(-c3cnc(C(C)(C)O)nc3)cc12)c1ccccc1F (racemic): 7.19
CC(C)C(Nc1c(Cl)cnc2ccc(-c3cnc(C(C)(C)O)nc3)cc12)c1ccccc1F (racemic): 6.08

Query block: Could you please provide reported pIC50 for C[C@@H](Nc1c(Cl)cnc2ccc(-c3ccc(C(C)(C)O)cc3)cc12)c1ccccc1F ? Thanks!
Result block: 7.19

* * *

experiment: Total AUC in mouse at 2 mg/kg, po; type: ADME, organism-based; design: time AUCmax, route oral, dose 2 mg/kg; details: in vivo
MEASUREMENT_KIND: AUC (µM·h)
Enter your answer as a number in µM·h; do not include the unit.

Query block: Given Cc1nc2cc(F)c(-c3cnc(C(C)(C)O)nc3)nc2c(N[C@H](C)c2cc(C#N)ccc2F)c1Cl , respond with its AUC.
Result block: 5.9

* * *

molecular target: UniProtKB P01375; assay: Displacement of fluorescent labeled probe from human recombinant His-tagged TNFalpha (77 to 233 residues) expressed in Escherichia coli preincubated for 1 hr followed by fluorogenic probe addition and measured after 3 hrs by HTRF assay
Returns: string. Value is T if measured IC50 is below 30 nM, and F if it is greater than or equal to it.

Query block: Given the entry C[C@@H](Nc1c(Cl)cnc2ccc(-c3cnc(C(C)(C)O)nc3)cc12)c1ccccc1F , would its reported IC50 be below 30 nM?
Result block: T

Query block: Take the molecule CCC(Nc1c(Cl)cnc2ccc(-c3cnc(C(C)(C)O)nc3)cc12)c1ccccc1F (racemic) and say whether its IC50 is less than 30 nM.
Result block: F

* * *

experiment: Terminal drug exposure in anticollagen antibody-induced arthritis BALB/c mouse model at 10 mg/kg, po BID followed by LPS stimulation after 6 hrs measured on day 12; type: ADME, organism-based; conditions: in vivo, time 12 day, read-out: Drug uptake
MEASUREMENT_KIND: concentration at 288 h (nM)
Unit nM implied. Number only.

Query block: Note down concentration at 288 h recorded for Cc1nc2cc(F)c(-c3cnc(C(C)(C)O)nc3)nc2c(N[C@H](C)c2cc(C#N)ccc2F)c1Cl
Result block: 1130
